Test system: SK-MEL-2 melanoma
assay remarks: NCI tumour cell line growth inhibition, 48 h
assay readout: TGI

Here is how some compounds turned out for TGI.
compound: COC(=O)Nc1nc2ccccc2[nH]1
TGI: > 100 µM
//
compound: Cc1c(C(=O)O)n(C)c(=O)n(C)c1=O
TGI: > 100 µM
//
compound: CC(C)Oc1cccc(N2C(Nc3ccccc3)=Nc3ccncc3S2(=O)=O)c1
TGI: > 100 µM

Q: Looking for the measured TGI of COc1cc(Oc2nc3cc(F)c(F)cc3nc2-c2ccccc2)cc(OC)c1OC , can you help?
Ans: > 100 µM

Q: Name the reported TGI value associated with the compound O=C(Nc1ccccc1I(=O)=O)C1CCCCC1
Ans: > 100 µM

Q: Look up TGI: Cc1ccccc1NC(=O)CC(=O)NNC(Sc1ccccc1)c1cc(N=Nc2ccc(Br)cc2)ccc1O (stereo unspecified)
Ans: > 10 µM
